Test: qHTS assay for small molecule agonists of the p53 signaling pathway (AID 651631); further: nearly all actives have a fitted effect of over 15% in size
Conditions: HCT-116 p53RE-bla reporter, beta-lactamase FRET ratio, 16 h; series mostly up to 73.3 µM
Excerpt: U.S. Tox21 Program National Center for Advancing Translational Sciences [NCATS] NIH Chemical Genomics Center [NCGC] U.S. Environmental Protection Agency [EPA] National Institutes of Environmental Health Sciences [NIEHS] National Toxicology Program [NTP] U.S. Food and Drug Administration [FDA] […] The activation of the reporter gene under culture conditions can be detected by fluorescence intensity. […]
Inconclusive results are not listed. Active and inactive are the calls of the source. The call rests on the fitted dose curve. Residues, ends and D or L forms follow the SMILES beside them.
Permitted responses: y = active, n = inactive

IN: Which outcome was entered for the compound `CC(=O)NS(=O)(=O)c1ccc(N)cc1` in this test?
OUT: n

IN: Each compound tested received a call. Report the one for `Nc1ccc(C(=O)O)cc1` .
OUT: n

IN: Would you mind telling me which call this test gave `c1ccc2[nH]ccc2c1` ?
OUT: n

IN: Write down the call the test reported for this compound. Item: `NC(=O)c1ccccc1O`
OUT: n

IN: Recorded test outcome, item NC(=O)NC1NC(=O)NC1=O (stereo unspecified)
OUT: n

IN: Which outcome was entered for the compound `NC(N)=NC(=O)c1nc(Cl)c(N)nc1N` in this test?
OUT: n

IN: Hey, what did the test say about `O=C(O)c1cccc([N+](=O)[O-])c1` ?
OUT: n

IN: Recorded call for `Oc1ccc(/C=C/c2cc(O)cc(O)c2)cc1` ?
OUT: y

IN: // return assay outcome for `O=c1cc[nH]c(=S)[nH]1`
OUT: n

IN: Called result for `CNC[C@H](O)c1cccc(O)c1`
OUT: n

IN: Outcome logged for `CCCNC(=O)NS(=O)(=O)c1ccc(Cl)cc1` in this assay:
OUT: n

IN: Could you kindly confirm the outcome this assay logged for `C1N2CN3CN1CN(C2)C3` ?
OUT: n

IN: In this assay, the call recorded for `CCCN(CCC)S(=O)(=O)c1ccc(C(=O)O)cc1` was what?
OUT: n

IN: Outcome logged for COC(=O)[C@H](Cc1ccccc1)NC(=O)[C@@H](N)CC(=O)O (H-Asp-Phe-OMe) in this assay:
OUT: n

IN: Kindly provide the recorded test outcome for the following compound: `O=C(O)CCCCC(=O)O`
OUT: n

IN: What did this assay record as the result for `O=C(O)c1[nH]n(-c2ccc(S(=O)(=O)O)cc2)c(=O)c1N=Nc1ccc(S(=O)(=O)O)cc1` ?
OUT: n

IN: What classification did `OCCc1ccccc1` end up with in this test?
OUT: n

IN: // return assay outcome for `O=C(O)c1cc(N=Nc2ccc(S(=O)(=O)Nc3ccccn3)cc2)ccc1O`
OUT: n

IN: Check the results log: what was the call for CCCCC(CC)COC(=O)/C=C/c1ccc(OC)cc1 (stereo unspecified) ?
OUT: n

IN: Could you please tell me the result logged for `O=C(O)CCCCCCCC(=O)O` in this assay?
OUT: n

IN: # fetch the recorded call for `COc1ccc2[nH]cc(CCNC(C)=O)c2c1` here
OUT: n

---

Test: qHTS assay for small molecule agonists of the antioxidant response element (ARE) signaling pathway (AID 743202)
Details: HepG2 ARE-bla reporter, beta-lactamase FRET, 16 h; series mostly up to 73.3 µM
Text: U.S. Tox21 Program National Center for Advancing Translational Sciences [NCATS] NIH Chemical Genomics Center [NCGC] U.S. Environmental Protection Agency [EPA] National Institutes of Environmental Health Sciences [NIEHS] National Toxicology Program [NTP] U.S. Food and Drug Administration [FDA] […] The activation of the report gene under culture conditions can be detected by fluorescence intensity. […]
Inconclusive results are not listed. Calls of active or inactive are those of the source. The call rests on the fitted dose curve; in most records, active means well fitted activation curve with a large enough effect in the signal ratio in the repeat runs (not every such curve was filed as active); inconclusive means weak or mixed curves, or effect the other way; inactive means no such curve, though single readings can be large or run the other way; the % refers to the signal ratio.
result-type: outcome

Sample records with outcome:
[[record]]
molecule = "CCCCC1C(=O)N(c2ccccc2)N(c2ccccc2)C1=O"
result = "inactive"

[[record]]
molecule = "CCCC(CCC)C(=O)O"
result = "inactive"

[[record]]
molecule = "COc1ccc2[nH]cc(CCNC(C)=O)c2c1"
result = "inactive"

[[record]]
molecule = "C[C@]12C=CC(=O)C=C1CC[C@@H]1[C@@H]2[C@@H](O)C[C@@]2(C)[C@H]1CC[C@]2(O)C(=O)CO"
result = "inactive"

[[record]]
molecule = "Cn1cc[nH]c1=S"
result = "inactive"


For reference, reported outcome for O=C(c1ccccc1)C(O)c1ccccc1 (stereo unspecified) stands at inactive

// outcome value for `CCCCCCCCCCCCCCCC(=O)O` : inactive

Record `CC(=O)OCC(COC(C)=O)OC(C)=O` , field outcome: inactive

// `Nc1ccn([C@H]2CC[C@@H](CO)O2)c(=O)n1` : outcome value = inactive

---

Experiment: A CellTox Green Cytotoxicity Assay to monitor cytotoxicity in HEK293 cells - 24 hour (AID 1224875); further: nearly all actives have a fitted effect of over 45% in size
Details: CellTox Green fluorescence; series mostly up to 76.8 µM
Inconclusive results are not listed. The source made the active and inactive calls. The call rests on the fitted dose curve; in most records, active means well fitted activation curve with a large enough effect in the repeat runs; inconclusive means weak or mixed curves; inactive means flat fitted curve, though single readings scatter.
result-type: outcome

Some compounds with recorded outcome:
[[record]]
compound = "Cc1ccc(C)c(OCCCC(C)(C)C(=O)O)c1"
result = "inactive"

[[record]]
compound = "N=C(N)c1ccc(OCCCCCOc2ccc(C(=N)N)cc2)cc1"
result = "inactive"

[[record]]
compound = "CC(O)C(=O)O (stereo not drawn)"
result = "inactive"

[[record]]
compound = "O=C(O)CS"
result = "inactive"

[[record]]
compound = "CCCC(O)C(CC)CO (stereo not drawn)"
result = "inactive"


Record `O=C(O)c1cccc([N+](=O)[O-])c1` , field outcome: inactive

Measured outcome of `CCCNC(=O)NS(=O)(=O)c1ccc(Cl)cc1` : inactive

The recorded outcome for `NNC(=O)c1ccncc1` is inactive

---

Assay: qHTS RealTime-Glo MT Cell Viability Assay in HepG2 cells - 24 hour (AID 1224867); further: nearly all actives have a fitted effect of over 50% in size
Conditions: RealTime-Glo luminescence; series mostly up to 76.8 µM
Results filed as inconclusive are left out. The source made the active and inactive calls. Calls come from the whole dose curve; as a rule, active = well fitted cell-killing curve with a large enough effect in the repeat runs; inconclusive = weak or mixed curves; inactive = flat fitted curve, though single readings scatter.
result-type: outcome

// worked examples, outcome included
[[record]]
compound = "O=C(c1ccccc1)c1ccccc1"
result_type = "outcome"
result = "inactive"

[[record]]
compound = "CC(=O)Nc1nnc(S(N)(=O)=O)s1"
result_type = "outcome"
result = "inactive"

[[record]]
compound = "O=C(O)c1[nH]n(-c2ccc(S(=O)(=O)O)cc2)c(=O)c1N=Nc1ccc(S(=O)(=O)O)cc1"
result_type = "outcome"
result = "inactive"

[[record]]
compound = "N=C(N)c1ccc(OCCCCCOc2ccc(C(=N)N)cc2)cc1"
result_type = "outcome"
result = "inactive"

[[record]]
compound = "C1N2CN3CN1CN(C2)C3"
result_type = "outcome"
result = "inactive"

[[record]]
compound = "O=c1ccc2ccccc2o1"
result_type = "outcome"
result = "inactive"

[[record]]
compound = "Cn1cc[nH]c1=S"
result_type = "outcome"
result = "inactive"

[[record]]
compound = "O=C1CN(/N=C/c2ccc([N+](=O)[O-])o2)C(=O)N1"
result_type = "outcome"
result = "inactive"


The reported outcome of the compound `Cn1c(=O)c2[nH]cnc2n(C)c1=O` was inactive

---

Assay: qHTS assay to identify aromatase inhibitors - cell viability counter screen (AID 743084);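 further: cells stimulated with testosterone during compound exposure; nearly all actives have a fitted effect of over 55% in size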
Conditions: MCF-7 aro ERE viability, CellTiter-Fluor, 24 h; series mostly up to 70.3 µM
Results filed as inconclusive are left out. The source made the active and inactive calls. Calls come from the whole dose curve; as a rule, active = well fitted cell-killing curve with a large enough effect in the repeat runs; inconclusive = weak or mixed curves, or effect the other way; inactive = no such curve, though single readings can be large or run the other way. Residues, ends and D or L forms follow the SMILES beside them.
result-type: outcome

[[record]]
molecule = "CC(=O)NS(=O)(=O)c1ccc(N)cc1"
result = "inactive"

[[record]]
molecule = "CCC1(c2ccccc2)C(=O)NCNC1=O"
result = "inactive"

[[record]]
molecule = "COC(=O)[C@H](Cc1ccccc1)NC(=O)[C@@H](N)CC(=O)O (H-Asp-Phe-OMe)"
result = "inactive"

[[record]]
molecule = "C[C@]12C=CC(=O)C=C1CC[C@@H]1[C@@H]2[C@@H](O)C[C@@]2(C)[C@H]1CC[C@]2(O)C(=O)CO"
result = "inactive"


---

Assay: qHTS assay to identify small molecule antagonists of the thyroid receptor (TR) signaling pathway (AID 743065); further: nearly all actives have a fitted effect of over 55% in size
Settings: GH3.TRE-Luc, T3-stimulated luciferase inhibition, 23.5 h; series mostly up to 70.3 µM
Inconclusive results are not listed. Activity calls are given as the source filed them. The call rests on the fitted dose curve; in most records, active means well fitted inhibition curve with a large enough effect in the repeat runs; inconclusive means weak or mixed curves; inactive means no such curve, though single readings can be large or run the other way.
result-type: outcome

[[record]]
structure_smiles = "CC1(C)[C@@H]2CC[C@@]1(C)C(=O)C2"
result = "inactive"

[[record]]
structure_smiles = "O=C(O)c1cccnc1"
result = "inactive"

[[record]]
structure_smiles = "Cc1noc(NS(=O)(=O)c2ccc(N)cc2)c1C"
result = "inactive"


---

Assay: qHTS assay to identify small molecule antagonists of the estrogen receptor beta (ER-beta) signaling pathway - cell viability counter screen (AID 1259382);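 further: HEK293T cells carrying ER-beta-UAS-bla reporter stimulated with estradiol; nearly all actives have a fitted effect of over 55% in size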
Conditions: ER-beta-UAS-bla HEK293T viability, CellTiter-Glo luminescence, 16 h; series mostly up to 92.4 µM
Records with an inconclusive call do not appear. The source made the active and inactive calls. The call rests on the fitted dose curve; in most records, active means well fitted cell-killing curve with a large enough effect in the repeat runs; inconclusive means weak or mixed curves; inactive means flat fitted curve, though single readings scatter.
result-type: outcome

Solved entries (count: 6):
[[record]]
structure_smiles = "CNC[C@H](O)c1cccc(O)c1"
result = "inactive"

[[record]]
structure_smiles = "O=C(O)CCCCC(=O)O"
result = "inactive"

[[record]]
structure_smiles = "CCCCOC(=O)CC(CC(=O)OCCCC)(OC(C)=O)C(=O)OCCCC"
result = "inactive"

[[record]]
structure_smiles = "CC1(C)[C@@H]2CC[C@@]1(C)C(=O)C2"
result = "inactive"

[[record]]
structure_smiles = "Cc1ccc(O)cc1"
result = "inactive"

[[record]]
structure_smiles = "Cc1ccc(C)c(OCCCC(C)(C)C(=O)O)c1"
result = "inactive"


Let us move to another entry and its outcome.
So, `NS(=O)(=O)c1cc(C(=O)O)c(NCc2ccco2)cc1Cl` ? Its outcome was inactive
